Reported GI50 values for a set of compounds
Test system: SKOV-3
Experiment: in vitro anti-cancer screen, Sulforhodamine B method
Format: cell-based, human
Conditions: OVARIAN: SKOV-3; 48 h incubation; read-out: GROWTH INHIBITION (GI 50)
Description: Each test compound was screened against a battery of cell lines representing eight different types of cancers. […] The plates were incubated at 37° C. in presence of CO2. After 24 h, test compounds were evaluated at five 10 fold dilutions ranging from 100 to 0.01 μM. […] The optical density which is proportional to protein mass, is then-read by automated spectrophotometric plate reader at a wavelength of 515 nm.
assay_readout: GI50 (µM)

[[record]]
compound = "C=C1CCC2C(C)(COC(C)=O)C(OC(C)=O)CCC2(C)C1CC(NCc1ccccc1)C1=CCOC1=O (stereo not shown)"
recorded_measurement = 0.3

[[record]]
compound = "C=C1CCC2C(C)(COC(C)=O)C(OC(C)=O)CCC2(C)C1CC(Sc1ccccc1)C1=CCOC1=O (stereo not shown)"
recorded_measurement = 6

[[record]]
compound = "CC(=O)OCC1(C)C(OC(C)=O)CCC2(C)C(CC(Sc3ccccc3)C3=CCOC3=O)C3(CCC12)CO3 (stereo not shown)"
recorded_measurement = 4

[[record]]
compound = "C=C1CCC2C(C)(COC(C)=O)C(OC(C)=O)CCC2(C)C1CC(NCc1ccc(OC)cc1)C1=CCOC1=O (stereo not shown)"
recorded_measurement = 0.15

